# Test system: UACC-257 melanoma
# protocol.text: NCI-60 one-dose screen, 48 h (100 = growth as untreated, 0 = no growth, -100 = all killed)
# setup.conditions: 10 µM unless noted
The panel holds about 83,000 compounds, 20% with a hit somewhere; the sample as a whole holds those more often.
Please note: yes applies when growth is 90% or greater, and no applies otherwise.

compound=O=CNc1ccc2c(c1)Cc1cccc(NC=O)c1-2 class_label=yes
compound=Cn1cc(-c2nonc2-c2cn(C)c3ccc(F)cc23)c2cc(F)ccc21 class_label=no
compound=Cc1ccc(OC(=O)c2ccc(Cl)cc2)cc1 class_label=yes
compound=Cn1cc(C(=O)c2nc(-c3c[nH]c4ccc(Br)cc34)no2)c2cc(F)ccc21 class_label=yes
compound=O=c1ccccc(-c2ccc(-c3ccco3)cc2)c1O class_label=no
compound="Cc1ccc(C2=NN3C(C2)c2cc(Br)ccc2OC32CCN(Cc3ccccc3)CC2)o1 (stereo unspecified)" class_label=yes
